Origin of values: PubChem BioAssay

This listing pairs compounds with measured aptamer binding inhibition.
Biological target: Beta-adrenergic receptor kinase 1 (Homo sapiens) (UniProt P25098)
Sequence (P25098 whole entry, looked up): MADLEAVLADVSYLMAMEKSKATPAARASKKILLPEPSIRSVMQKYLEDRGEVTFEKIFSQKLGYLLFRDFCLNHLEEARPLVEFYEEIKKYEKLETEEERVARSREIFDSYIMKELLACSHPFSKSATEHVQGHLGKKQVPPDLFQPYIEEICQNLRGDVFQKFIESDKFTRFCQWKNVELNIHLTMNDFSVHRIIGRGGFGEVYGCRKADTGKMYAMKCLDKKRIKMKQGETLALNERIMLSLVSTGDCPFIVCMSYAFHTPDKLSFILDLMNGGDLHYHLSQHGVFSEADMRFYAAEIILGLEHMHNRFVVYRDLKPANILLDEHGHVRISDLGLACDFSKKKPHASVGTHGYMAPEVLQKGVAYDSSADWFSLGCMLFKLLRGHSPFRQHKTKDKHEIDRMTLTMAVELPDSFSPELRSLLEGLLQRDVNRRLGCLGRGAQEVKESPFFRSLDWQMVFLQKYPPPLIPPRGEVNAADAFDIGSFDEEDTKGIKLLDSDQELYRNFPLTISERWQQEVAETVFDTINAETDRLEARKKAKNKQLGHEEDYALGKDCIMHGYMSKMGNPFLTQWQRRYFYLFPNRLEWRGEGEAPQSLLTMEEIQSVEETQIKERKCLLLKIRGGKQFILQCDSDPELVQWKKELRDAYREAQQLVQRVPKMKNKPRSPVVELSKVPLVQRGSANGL
Assay: GRK2 binders displacing RNA aptamer, biochemical, validation, human GRK2, bead flow cytometry (AID 488806)
Details: bead-bound GRK2, FAM-aptamer displacement, at 10 µM, stronger effect = higher value
Peptide text beside a SMILES is read from it.
Give the number; % is assumed, so skip it.

compound	aptamer binding inhibition / %
COc1ccc2[nH]cc(C3N4CC5(C)CN3CC(C)(C4)C5=O)c2c1 (stereo not drawn)	-2
CC(=O)NC(CC(C)C)C(=O)NC(Cc1ccccc1)C(N)=O (stereo not drawn) (Ac-Leu-Phe-NH2; configuration not given here)	2

Now for a further compound.
Ask: Would you mind telling me what aptamer binding inhibition value was observed for `COc1cc(NC(=S)NC(=O)c2cccs2)ccc1NC(=O)C(C)C` ?
Result: 3
